Reference source for all entries: patent US20060241051A1

biological target: human OT7T175 (metastin receptor) (human, UniProt Q969F8 1-398); assay: cell-based or functional assay
Sequence (Q969F8 whole entry L364H): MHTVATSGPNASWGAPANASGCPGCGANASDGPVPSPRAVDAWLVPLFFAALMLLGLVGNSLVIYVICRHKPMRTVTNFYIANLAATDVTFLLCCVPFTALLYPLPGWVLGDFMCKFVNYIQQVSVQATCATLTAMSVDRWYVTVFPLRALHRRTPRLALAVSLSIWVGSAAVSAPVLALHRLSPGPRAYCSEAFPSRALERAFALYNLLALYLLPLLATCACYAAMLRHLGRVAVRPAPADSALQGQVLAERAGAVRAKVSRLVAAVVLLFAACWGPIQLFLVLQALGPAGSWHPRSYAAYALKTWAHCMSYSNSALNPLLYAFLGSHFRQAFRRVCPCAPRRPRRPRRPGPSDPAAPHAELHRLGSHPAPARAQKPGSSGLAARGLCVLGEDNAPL
Square brackets hold non-standard residues; d marks the D form. Ends that are not written are not given here. 1Nal = N[C@@H](Cc1cccc2ccccc12)C(=O)O; 2Nal = N[C@@H](Cc1ccc2ccccc2c1)C(=O)O; Arg(Me) = CNC(=N)NCCC[C@H](N)C(=O)O; d3Pal = N[C@H](Cc1cccnc1)C(=O)O; azaGly = NNC(=O)O
Measurement label: intracellular Ca ion level-increasing activity (FLIPR)

Inquiry: # intracellular Ca ion level-increasing activity (FLIPR) lookup, item [dY]NFNSFF[azaGly]L[Arg(Me)]F-NH2 (11 residues; also called Endo-Phe5a-[D-Tyr1,Phe3,AzaGly7,Arg(Me)9]MS10) [Compound No. 270: [D-Tyr1,Phe3,Ser-Phe5,AzaGly7,Arg(Me)9]MS10]
Reply text: 1 specific activity to metastin (1-54)

Inquiry: Report intracellular Ca ion level-increasing activity (FLIPR) for [dY]N[2Nal]NSF[azaGly]L[Arg(Me)]F-NH2 (N-terminus assumed; SMILES CNC(=N)NCCC[C@H](NC(=O)[C@H](CC(C)C)NC(=O)NNC(=O)[C@H](Cc1ccccc1)NC(=O)[C@H](CO)NC(=O)[C@H](CC(N)=O)NC(=O)[C@H](Cc1ccc2ccccc2c1)NC(=O)[C@H](CC(N)=O)NC(=O)[C@H](N)Cc1ccc(O)cc1)C(=O)N[C@@H](Cc1ccccc1)C(N)=O) [Compound No. 246: [D-Tyr1,Nal(2) 3,AzaGly7,Arg(Me)9]MS10] please.
Reply text: 2 specific activity to metastin (1-54)

Inquiry: // returns reported intracellular Ca ion level-increasing activity (FLIPR) for input [d3Pal]WNSF[azaGly]L[Arg(Me)]F-NH2 (N-terminus assumed; SMILES CNC(=N)NCCC[C@H](NC(=O)[C@H](CC(C)C)NC(=O)NNC(=O)[C@H](Cc1ccccc1)NC(=O)[C@H](CO)NC(=O)[C@H](CC(N)=O)NC(=O)[C@H](Cc1c[nH]c2ccccc12)NC(=O)[C@H](N)Cc1cccnc1)C(=O)N[C@@H](Cc1ccccc1)C(N)=O, also called [D-Pya(3)2,AzaGly7,Arg(Me)9]MS10-(2-10)) [Compound No. 289: des(1)-[D-Pya(3) 2,AzaGly7,Arg(Me)9]MS10]
Reply text: 1 specific activity to metastin (1-54)

Inquiry: Record request: intracellular Ca ion level-increasing activity (FLIPR) value, item [dY][dN]FNSF[azaGly]L[Arg(Me)]F-NH2 [Compound No. 257: [D-Tyr1,D-Asn2,Phe3,AzaGly7,Arg(Me)9]MS10]
Reply text: 3 specific activity to metastin (1-54)

Inquiry: What value of measured intracellular Ca ion level-increasing activity (FLIPR) is listed for [dY][dN]TNSF[azaGly]L[Arg(Me)]F-NH2 (N-terminus assumed; SMILES CNC(=N)NCCC[C@H](NC(=O)[C@H](CC(C)C)NC(=O)NNC(=O)[C@H](Cc1ccccc1)NC(=O)[C@H](CO)NC(=O)[C@H](CC(N)=O)NC(=O)[C@@H](NC(=O)[C@@H](CC(N)=O)NC(=O)[C@H](N)Cc1ccc(O)cc1)[C@@H](C)O)C(=O)N[C@@H](Cc1ccccc1)C(N)=O) [Compound No. 284: [D-Tyr1,D-Asn2,Thr3,AzaGly7,Arg(Me)9]MS10] ?
Reply text: 1 specific activity to metastin (1-54)

Inquiry: What does the data say about its intracellular Ca ion level-increasing activity (FLIPR)? Entry: {Indole‑3‑carbonyl}-NSF[azaGly]L[Arg(Me)]F-NH2 (also called des(1-3)-Indole-3-carboxyl-[AzaGly7,Arg(Me)9]MS10) [Compound No. 265: des(1-3)-Indole-3-carbonyl-[AzaGly7,Arg(Me)9]MS10]
Reply text: 3 specific activity to metastin (1-54)

Inquiry: Please look up its intracellular Ca ion level-increasing activity (FLIPR): [dY]N[1Nal]NSF[azaGly]L[Arg(Me)]F-NH2 (N-terminus assumed; SMILES CNC(=N)NCCC[C@H](NC(=O)[C@H](CC(C)C)NC(=O)NNC(=O)[C@H](Cc1ccccc1)NC(=O)[C@H](CO)NC(=O)[C@H](CC(N)=O)NC(=O)[C@H](Cc1cccc2ccccc12)NC(=O)[C@H](CC(N)=O)NC(=O)[C@H](N)Cc1ccc(O)cc1)C(=O)N[C@@H](Cc1ccccc1)C(N)=O) [Compound No. 245: [D-Tyr1,Nal(1)3,AzaGly7,Arg(Me)9]MS10]
Reply text: 1 specific activity to metastin (1-54)
